Reference source for all entries: patent US12486280B2

# Experiment: Compound Solubility Assay (kinetic solubility)
# Type: physicochemical
# Recorded conditions: simulated gastric fluid, kinetic from dmso stock; kinetic solubility, SGF buffer pH 1.2, 37° C., 24 hours; read-out: KS1
Property: solubility kinetic at 24 h (µM)

{"Compound": "Cc1nc2c(F)cc(-c3nc(Nc4ccc(CN5CCO[C@@](C)(C[C@@H](C)N(C)C)C5)cn4)ncc3F)cc2n1C(C)C [Compound A28, methanesulfonate]", "Units of measure": "µM", "Reported measurement": 200}
{"Compound": "Cc1nc2c(F)cc(-c3nc(Nc4ccc(CN5CCO[C@](C)(CCNCC(F)(F)F)C5)cn4)ncc3F)cc2n1C(C)C", "Units of measure": "µM", "Reported measurement": 200}
{"Compound": "Cc1nc2c(F)cc(-c3nc(Nc4ccc(CN5CCNC(C)(C)C5)cn4)ncc3F)cc2n1C(C)C", "Units of measure": "µM", "Reported measurement": 200}
{"Compound": "Cc1nc2c(F)cc(-c3nc(Nc4ccc(CN5CCO[C@](C)(C[C@@H](C)N(C)C)C5)cn4)ncc3F)cc2n1C(C)C", "Units of measure": "µM", "Reported measurement": 200}
{"Compound": "CC(=O)N1CC[C@@]2(CN(Cc3ccc(Nc4ncc(F)c(-c5cc(F)c6nc(C)n(C(C)C)c6c5)n4)nc3)CCO2)C1", "Units of measure": "µM", "Reported measurement": 200}
{"Compound": "Cc1nc2c(F)cc(-c3nc(Nc4ccc(CN5CCO[C@](C)(CC(=O)N6CCCC6)C5)cn4)ncc3F)cc2n1C(C)C", "Units of measure": "µM", "Reported measurement": 186}

----------
# Test system: drug-sensitive cell lines of Table 2 (EFM-19, MDA-MB-453, T-47D, ZR-75-1, NCI-H441, OVTOKO, NCI-H1838)
# Experiment: Cell Line Growth Retardation Assay, sensitive cohort
# Type: cell-based, human
# Recorded conditions: Homo sapiens, […], geometric mean over sensitive cohort; 6 days growth; read-out: AvgSensIC50
# Description: Cells were seeded at densities of 1,000-5,000 cells per well in 48-well tissue culture plates. After a 24 hours rest period, cells were treated with compound at 10 μM, 2 μM, 0.4 μM, 0.08 μM, 0.016 μM, and 0.0032 μM. […] The cells were grown in the presence of compounds for 6 days and were counted on day 0 and day 6. […] Growth inhibition was calculated as a ratio of cell population doublings in the presence of compound versus the absence of compound. […]
pIC50: −log10 of the molar value.
Property: pIC50

{"Molecule": "Cc1nc2c(F)cc(-c3nc(Nc4ccc(CN5CCO[C@](C)(CCN6CC6C)C5)cn4)ncc3F)cc2n1C(C)C (stereo partly drawn)", "Reported measurement": 7.10}
{"Molecule": "Cc1nc2c(F)cc(-c3nc(Nc4ccc(CN5CCO[C@](C)(CCNCC(F)F)C5)cn4)ncc3F)cc2n1C(C)C", "Reported measurement": 7.00}
{"Molecule": "Cc1nc2c(F)cc(-c3nc(Nc4ccc(CN5CCO[C@]6(CCNC6)C5)cn4)ncc3F)cc2n1C(C)C", "Reported measurement": 6.72}
{"Molecule": "Cc1nc2c(F)cc(-c3nc(Nc4ccc(CN5CCO[C@](C)(CCNCC(F)(F)F)C5)cn4)ncc3F)cc2n1C(C)C", "Reported measurement": 6.92}
{"Molecule": "Cc1nc2c(F)cc(-c3nc(Nc4ccc(CN5CCOC(C)(CCN(C)C)C5)cn4)ncc3F)cc2n1C(C)C (stereo not drawn)", "Reported measurement": 6.80}
{"Molecule": "CCN1CCN(Cc2ccc(Nc3ncc(F)c(-c4cc(F)c5nc(C)n(C(C)C)c5c4)n3)nc2)CC1 [Abemaciclib MS, Abemaciclib, reference compound]", "Reported measurement": 7.05}

a: COC(=O)N1CC[C@@]2(CN(Cc3ccc(Nc4ncc(F)c(-c5cc(F)c6nc(C)n(C(C)C)c6c5)n4)nc3)CCO2)C1
b: CCN(CC)CCC1(C)CN(Cc2ccc(Nc3ncc(F)c(-c4cc(F)c5nc(C)n(C(C)C)c5c4)n3)nc2)CCO1 (stereo in doubt)
c: Cc1nc2c(F)cc(-c3nc(Nc4ccc(CN5CCOC6(CCOC6)C5)cn4)ncc3F)cc2n1C(C)C (stereo not drawn)
d: CCOCC[C@]1(C)CN(Cc2ccc(Nc3ncc(F)c(-c4cc(F)c5nc(C)n(C(C)C)c5c4)n3)nc2)CCO1
e: CC(=O)N1CC[C@]2(CN(Cc3ccc(Nc4ncc(F)c(-c5cc(F)c6nc(C)n(C(C)C)c6c5)n4)nc3)CCO2)C1
Ask | Exam item: list the entries in increasing order of pIC50. Answer format: list of labels, ordered as asked.
Reply | d, c, e, a, b
(d: 6.00, c: 6.35, e: 6.59, a: 6.82, b: 7.15)
